- Protocol Text: Metabolic stability in hepatocytes
- Format: in vitro ADME, human
- Condition Parameters: both sexes; human hepatocytes; read-out: HEPClint (H)
# note: exactly 20 µL/min/1e6 cells is not below, so it is class 0; use class 1 for hepatocyte CLint strictly under it

1. COc1cc2c(Nc3cccc(Cl)c3F)c(C#N)cnc2cc1OCCON1CCN(C)CC1 [11a]    class 0
2. COc1cc2c(Nc3cccc(OC)c3Cl)c(C#N)cnc2cc1OCCON1CCN(C)CC1 [12a]    class 1
3. COc1cc(Nc2c(C#N)cnc3cc(OCCON4CCN(C)CC4)c(OC)cc23)c(F)cc1Cl    class 0
4. COc1cc(Cl)ccc1Nc1c(C#N)cnc2cc(OCCON3CCN(C)CC3)c(OC)cc12 [15a]    class 0
5. COc1cc2c(Nc3cccc(OC)c3F)c(C#N)cnc2cc1OCCON1CCN(C)CC1 [13a]    class 1
6. COc1cc(Nc2c(C#N)cnc3cc(OCCON4CCN(C)CC4)c(OC)cc23)ccc1Cl [14a]    class 0

====

- Study Target: hERG potassium ion channel (Homo sapiens, UniProt Q12809)
- Construct: host or cells: HEK 293
- Sequence (Q12809 whole entry): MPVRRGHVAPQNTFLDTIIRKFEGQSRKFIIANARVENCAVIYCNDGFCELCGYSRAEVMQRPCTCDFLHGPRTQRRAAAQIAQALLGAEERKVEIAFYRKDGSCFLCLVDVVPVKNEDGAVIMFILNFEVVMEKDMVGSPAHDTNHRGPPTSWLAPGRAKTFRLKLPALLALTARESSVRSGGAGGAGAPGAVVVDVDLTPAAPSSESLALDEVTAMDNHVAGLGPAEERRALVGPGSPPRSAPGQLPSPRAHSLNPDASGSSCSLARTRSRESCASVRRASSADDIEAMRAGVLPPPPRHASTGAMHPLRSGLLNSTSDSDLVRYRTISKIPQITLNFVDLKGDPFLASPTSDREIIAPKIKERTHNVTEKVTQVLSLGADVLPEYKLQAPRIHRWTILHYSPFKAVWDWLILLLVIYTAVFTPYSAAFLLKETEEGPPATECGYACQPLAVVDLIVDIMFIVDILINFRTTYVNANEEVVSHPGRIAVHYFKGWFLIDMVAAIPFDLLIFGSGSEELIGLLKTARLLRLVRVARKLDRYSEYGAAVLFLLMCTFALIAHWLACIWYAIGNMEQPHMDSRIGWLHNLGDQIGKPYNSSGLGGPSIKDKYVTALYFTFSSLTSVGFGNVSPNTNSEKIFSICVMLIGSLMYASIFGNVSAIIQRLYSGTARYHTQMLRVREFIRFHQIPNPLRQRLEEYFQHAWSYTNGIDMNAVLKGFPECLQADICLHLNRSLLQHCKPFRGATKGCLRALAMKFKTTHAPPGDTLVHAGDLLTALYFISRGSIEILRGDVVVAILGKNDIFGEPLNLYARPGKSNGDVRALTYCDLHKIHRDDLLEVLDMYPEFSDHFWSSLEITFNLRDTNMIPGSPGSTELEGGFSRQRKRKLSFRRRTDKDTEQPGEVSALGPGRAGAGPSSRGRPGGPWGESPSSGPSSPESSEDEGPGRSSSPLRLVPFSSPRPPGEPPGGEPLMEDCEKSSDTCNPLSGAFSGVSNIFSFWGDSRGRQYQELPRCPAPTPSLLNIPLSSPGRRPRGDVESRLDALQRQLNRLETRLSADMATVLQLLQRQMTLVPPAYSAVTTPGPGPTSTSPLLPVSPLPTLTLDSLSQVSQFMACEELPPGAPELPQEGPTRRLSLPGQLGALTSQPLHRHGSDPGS
- Protocol Text: hERG safety evaluation by manual patch-clamp (HEK 293)
- Assay type: cell-based
- Condition Parameters: mean ± SEM in Table S11
pIC50: −log10 of the molar value.
pIC50 by entry:
Quantity Kind: pIC50

1) COc1cc2c(Nc3cccc(OC)c3Cl)c(C#N)cnc2cc1OCCON1CCN(C)CC1 [12a]    5.29
2) COc1cc(Cl)ccc1Nc1c(C#N)cnc2cc(OCCON3CCN(C)CC3)c(OC)cc12 [15a]    5.36

====

- Tested on: MDR1
- Protocol Text: in vitro
- Condition Parameters: dog, MDCK-MDR1
Quantity Kind: Papp A→B

1. COc1cc2c(Nc3cccc(OC)c3F)c(C#N)cnc2cc1OCCON1CCN(C)CC1 [13a]    7.53 ×10⁻⁶ cm/s
2. COc1cc(Nc2c(C#N)cnc3cc(OCCON4CCN(C)CC4)c(OC)cc23)c(F)cc1Cl [8a]    0.73 ×10⁻⁶ cm/s
3. COc1cc2c(Nc3cccc(OC)c3Cl)c(C#N)cnc2cc1OCCON1CCN(C)CC1 [12a]    12.5 ×10⁻⁶ cm/s

====

- Protocol Text: Metabolic stability in hepatocytes
- Type: in vitro ADME, human
- Condition Parameters: 60 min
Remaining Percentages by entry:
Quantity Kind: Remaining Percentages (%)

1) COc1cc(Cl)ccc1Nc1c(C#N)cnc2cc(OCCON3CCN(C)CC3)c(OC)cc12 [15a]    43.29
2) COc1cc(Nc2c(C#N)cnc3cc(OCCON4CCN(C)CC4)c(OC)cc23)ccc1Cl [14a]    50.16
3) COc1cc2c(Nc3cccc(OC)c3Cl)c(C#N)cnc2cc1OCCON1CCN(C)CC1 [12a]    60.46
4) COc1cc2c(Nc3cccc(Cl)c3F)c(C#N)cnc2cc1OCCON1CCN(C)CC1 [11a]    45.06
5) COc1cc(Nc2c(C#N)cnc3cc(OCCON4CCN(C)CC4)c(OC)cc23)c(F)cc1Cl    29.45
6) COc1cc2c(Nc3cccc(OC)c3F)c(C#N)cnc2cc1OCCON1CCN(C)CC1 [13a]    80.41

All figures here come from paper PMC11472320.
